Biological target: SGLT2 (Homo sapiens)
Construct: host or cells: TSA201 (Human Embryonal Kidney) cells, lentiviral transduction, puromycin selection
Sequence (P31639 whole entry): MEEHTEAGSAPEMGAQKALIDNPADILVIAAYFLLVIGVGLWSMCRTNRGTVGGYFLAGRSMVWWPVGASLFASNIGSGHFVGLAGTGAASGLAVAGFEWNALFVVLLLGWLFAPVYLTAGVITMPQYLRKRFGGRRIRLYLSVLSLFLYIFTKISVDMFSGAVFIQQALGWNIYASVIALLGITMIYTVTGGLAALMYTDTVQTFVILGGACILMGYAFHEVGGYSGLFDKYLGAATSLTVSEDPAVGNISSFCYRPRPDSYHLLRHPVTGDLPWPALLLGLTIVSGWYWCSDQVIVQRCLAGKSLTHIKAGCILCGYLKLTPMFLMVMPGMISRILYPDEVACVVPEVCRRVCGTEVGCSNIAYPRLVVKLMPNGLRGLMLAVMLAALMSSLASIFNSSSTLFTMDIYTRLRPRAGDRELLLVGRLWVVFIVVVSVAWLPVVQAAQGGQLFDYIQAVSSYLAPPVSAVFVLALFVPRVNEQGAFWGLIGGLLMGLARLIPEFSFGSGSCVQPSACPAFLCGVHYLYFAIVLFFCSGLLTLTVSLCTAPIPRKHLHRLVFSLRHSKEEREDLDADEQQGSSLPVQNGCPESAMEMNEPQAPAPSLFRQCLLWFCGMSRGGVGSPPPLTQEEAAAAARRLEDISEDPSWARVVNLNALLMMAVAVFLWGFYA
Experiment: SGLT2 inhibition, 2-NBDG glucose uptake in SGLT2-overexpressing TSA201 cells
Type: cell-based
Settings: Table 3; TSA-201 cells; NI: no inhibition at 1000 µM
property name: IC50 (µM)
Numbers only, in µM.

These solved cases illustrate the format of a correct answer.
In [3]: df
Out[3]:
                                   compound  result
0  OC[C@H]1O[C@@H](c2nnc(-c3ccccc3)[nH]2)[C@H](O)[C@@H](O)[C@@H]1O [25a]      15
1  OC[C@H]1O[C@@H](n2cc(-c3ccccc3)nn2)[C@H](O)[C@@H](O)[C@@H]1O [21a]    67.3
2  OC[C@H]1O[C@@H](c2nc(-c3ccc4ccccc4c3)n[nH]2)[C@H](O)[C@@H](O)[C@@H]1O [25b]    17.7
3  OC[C@H]1O[C@@H](c2nc(-c3ccc4ccccc4c3)c[nH]2)[C@H](O)[C@@H](O)[C@@H]1O [24b]     3.5
4  OC[C@H]1O[C@@H](c2nc(-c3ccccc3)c[nH]2)[C@H](O)[C@@H](O)[C@@H]1O [24a]      91

Please state IC50 for every compound in the list that follows.
1. OC[C@H]1O[C@@H](n2cc(-c3ccc4ccccc4c3)nn2)[C@H](O)[C@@H](O)[C@@H]1O [21b]
2. OC[C@H]1O[C@@H](c2cn(-c3ccccc3)nn2)[C@H](O)[C@@H](O)[C@@H]1O [22a]
3. OC[C@H]1O[C@@H](c2cn(-c3ccc4ccccc4c3)nn2)[C@H](O)[C@@H](O)[C@@H]1O [22b]

[10.3, 9.1, 111]

* * *

Task for the reader: assign each of the following compounds its reported IC50.
Target: SGLT1 (Homo sapiens, UniProt P13866)
Construct: host or cells: TSA201 (Human Embryonal Kidney) cells, lentiviral transduction, puromycin selection
Sequence (P13866 whole entry): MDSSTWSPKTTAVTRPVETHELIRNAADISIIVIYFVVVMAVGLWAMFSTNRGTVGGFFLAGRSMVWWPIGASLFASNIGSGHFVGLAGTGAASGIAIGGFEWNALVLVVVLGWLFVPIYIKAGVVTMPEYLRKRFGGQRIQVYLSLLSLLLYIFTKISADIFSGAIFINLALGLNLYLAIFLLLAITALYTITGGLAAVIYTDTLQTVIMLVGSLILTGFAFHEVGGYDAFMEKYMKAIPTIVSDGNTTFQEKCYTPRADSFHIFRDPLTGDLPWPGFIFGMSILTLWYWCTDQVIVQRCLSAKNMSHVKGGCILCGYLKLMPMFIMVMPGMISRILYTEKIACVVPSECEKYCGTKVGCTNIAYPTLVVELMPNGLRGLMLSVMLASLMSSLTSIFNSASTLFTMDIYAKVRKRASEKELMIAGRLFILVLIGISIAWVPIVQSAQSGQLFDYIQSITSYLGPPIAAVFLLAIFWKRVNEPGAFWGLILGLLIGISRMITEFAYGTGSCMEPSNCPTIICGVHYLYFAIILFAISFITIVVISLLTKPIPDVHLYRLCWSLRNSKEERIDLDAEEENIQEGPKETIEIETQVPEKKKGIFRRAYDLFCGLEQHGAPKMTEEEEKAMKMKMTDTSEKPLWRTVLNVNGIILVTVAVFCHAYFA
Assay: SGLT1 inhibition, 2-NBDG glucose uptake in SGLT1-overexpressing TSA201 cells
Assay type: cell-based
Numbers only, in µM.

                                   compound                          study_system  result
0  OC[C@H]1O[C@@H](c2noc(Cc3ccccc3)n2)[C@H](O)[C@@H](O)[C@@H]1O [10a]  SGLT1 (Homo sapiens, UniProt P13866)    20.7
1  OC[C@H]1O[C@@H](n2cc(Cc3ccccc3)nn2)[C@H](O)[C@@H](O)[C@@H]1O  SGLT1 (Homo sapiens, UniProt P13866)     101

Please state IC50 for every compound in the list that follows.
1. OC[C@H]1O[C@@H](c2nc(Cc3ccccc3)n[nH]2)[C@H](O)[C@@H](O)[C@@H]1O [19a]
2. OC[C@H]1O[C@@H](c2nc(Cc3ccccc3)n(-c3ccccc3)n2)[C@H](O)[C@@H](O)[C@@H]1O [19c]
3. OC[C@H]1O[C@@H](c2nc(Cc3ccccc3)c[nH]2)[C@H](O)[C@@H](O)[C@@H]1O
4. OC[C@H]1O[C@@H](c2nnc(Cc3ccccc3)o2)[C@H](O)[C@@H](O)[C@@H]1O [13a]
5. OC[C@H]1O[C@@H](c2nccc(Cc3ccccc3)n2)[C@H](O)[C@@H](O)[C@@H]1O [16a]

1: 19.6; 2: 35.5; 3: 11.7; 4: 23.7; 5: 18
